Each record here notes measured MIC.
- System: Mycolicibacterium smegmatis
- assay-notes: Antimycobacterial activity against Mycobacterium smegmatis str. MC2 155 ATCC 700084 assessed as inhibition of mycobacterial growth incubated for 24 hrs by MABA method
- Assay type: functional
- measurement-setup: MC2 155 ATCC 700084, 24 h

These recorded examples may help you get a feel for the data.
Cc1cc(CNOCc2ccccc2)c(C)n1-c1ccc(F)cc1: > 64 µg/mL
Cc1c(CN2CCN(c3ccccc3)CC2)cc(-c2ccc(Cl)cc2)n1-c1ccc(Cl)cc1: > 64 µg/mL

Consider the record given below.
Qu. Could you share which MIC value was measured for `Cc1cc(/C=N\OCc2ccccc2)c(C)n1-c1ccc(Cl)cc1` ?
Ans. > 64 µg/mL

====

Each record here notes measured Activity.
- Tested on: Mycolicibacterium aurum
- assay-notes: Inhibition of multidrug resistance efflux pump in Mycobacterium aurum ATCC 23366 assessed as inhibition of ethidium bromide efflux by measuring relative fluorescence units for ethidium bromide accumulation at 1/4 times MIC incubated for 60 mins by fluorimetric assay
Express it in RFU; write the number only.

These recorded examples may help you get a feel for the data.
Cc1cc(CN2CCN(C3C[C@@H]4CC[C@H]3C4)CC2)c(C)n1-c1ccc(Cl)cc1 (mixture of isomers): 1
Cc1cc(CN2CCN(C3C4CC5CC(C4)CC3C5)CC2)c(C)n1-c1ccc(C(C)C)cc1 (configuration not stated): 3
Cc1cc(CNCCc2ccccc2)c(C)n1-c1ccc(Cl)cc1: 2

Consider the record given below.
Qu. Could you share which Activity value was measured for `Cc1cc(CNCc2ccccc2)c(C)n1-c1ccc(Cl)cc1` ?
Ans. 2

====

- Tested on: Mycolicibacterium smegmatis
- assay-notes: Antimycobacterial activity against Mycobacterium smegmatis str. MC2 155 ATCC 700084 assessed as inhibition of mycobacterial growth incubated for 24 hrs by MABA method
- Type: functional
- measurement-setup: MC2 155 ATCC 700084, 24 h
Each record here notes measured MIC.
Express it in µg/mL; write the number only.

These recorded examples may help you get a feel for the data.
Cc1cccc(-n2c(C)cc(CN3CCN(C4C5CC6CC(C5)CC4C6)CC3)c2C)c1 (stereo not given): 64
Cc1c(CN2CCN(C34CC5CC(CC(C5)C3)C4)CC2)cc(-c2ccc(Cl)cc2)n1-c1ccc(Cl)cc1: 3.3
Cc1cc(CN2CCN(C3C4CC5CC(C4)CC3C5)CC2)c(C)n1-c1ccc(C(C)C)cc1 (stereo not given): 21

Qu. Could you share which MIC value was measured for CC(C)=CCC/C(C)=C/CNCCNC1C2CC3CC(C2)CC1C3 (stereo not given) ?
Ans. 4

====

- assay-notes: Selectivity index, ratio of GIC50 for cytotoxicity against human THP1 cells to MIC for Mycobacterium tuberculosis H37Rv ATTC 27294
- Format: toxicity, cell-based, THP-1
- measurement-setup: read-out: Selectivity Index
recorded-endpoint: selectivity ratio
Number only, no unit.

These recorded examples may help you get a feel for the data.
Cc1cc(CNCc2ccc(Cl)cc2)c(C)n1-c1ccc(Cl)cc1: 1.1
Cc1cc(CNCc2ccccc2)c(C)n1-c1ccc(Cl)cc1: 14
Cc1cc(CN2CCN(C3C4CC5CC(C4)CC3C5)CC2)c(C)n1-c1ccccc1F (stereo not drawn): 6.7

Qu. Could you share which selectivity ratio value was measured for Cc1cc(CN2CCN(C3C[C@@H]4CC[C@H]3C4)CC2)c(C)n1-c1ccc(Cl)cc1 (mixture of isomers) ?
Ans. 8.4

Hey, just so you know, these numbers are from ChEMBL document CHEMBL3797154.
